Collected literature values of pIC50 measured for Tyrosine-protein kinase JAK1 (Homo sapiens, UniProt P23458).
pIC50: −log10 of the molar value.

Here are 3 compounds together with their reported answers.
[[record]]
compound = "CN(c1ncnc2[nH]ccc12)C1CCC2(CC1)CCN(C(=O)c1cnccn1)CC2"
quantity = "pIC50"
val = "6.00 to 7.00"

[[record]]
compound = "Cn1cc(-c2cc3nccn3c(-c3cnn(C4(CC#N)CN(C5CC5)C4)c3)n2)cn1"
quantity = "pIC50"
val = "6.00 to 7.00"

[[record]]
compound = "CN(c1ncnc2[nH]ccc12)C1CC2(C1)CN(C(=O)CC#N)C2"
quantity = "pIC50"
val = "6.00 to 7.00"


The record that follows has no pIC50 shown yet.
(Q) Send back Tyrosine-protein kinase JAK1 (Homo sapiens, UniProt P23458) pIC50 of CC1=Cc2cc(Nc3nn([C@@H]4CCCC[C@H]4C#N)cc3C(N)=O)ccc2OB1O (relative stereo) only.
(A) > 8.00
